biological target: HIV-1 YU-2 gp120 (HIV-1 (YU-2), UniProt P35961 32-498); test: ELISA
Square brackets hold non-standard residues; d marks the D form. Ends that are not written are not given here. Ftp = ferrocenyl-triazole-Pro (made from azidoproline)
attribute-measured: IC50 (µM)
Give bare numbers, in µM.

Record NNI[Ftp]W-NH2 [UM17] . Reported IC50: 4
